Reported IC50 is given for each of the following compounds.
Test system: Phospho-Rb (Ser807/811)
Experiment: Phospho-Retinoblastoma (pRB) Cellular Assay
Format: cell-based
Details: Homo sapiens, OVCAR-3; NIH OVCAR3 cells, 24 hours; concentration giving 50% response
Numeric answer plus unit only.

Problem: Supply IC50 value. Item: O=C1CCC(N2Cc3ccc(COC(=O)Nc4ccc(Oc5ccc(F)cc5F)cc4)c(O[C@@H]4CCCOC4)c3C2=O)C(=O)N1 (stereo partly shown)
Result: 37 nM

Problem: Supply IC50 value. Item: COc1c(COC(=O)Nc2ccc(Oc3ccc(F)cc3)cc2F)ccc2c1C(=O)N(C1CCC(=O)NC1=O)C2 (stereo not shown)
Result: 100 nM

Problem: Supply IC50 value. Item: COc1c(COC(=O)Nc2ccc(Oc3cc(F)cc(F)c3)cc2F)ccc2c1C(=O)N(C1CCC(=O)NC1=O)C2 (stereo not shown)
Result: 229 nM

Others:
Problem: Supply IC50 value. Item: COc1c(COC(=O)Nc2ccc(Oc3cccc(F)c3Cl)cc2)ccc2c1C(=O)N(C1CCC(=O)NC1=O)C2 (stereo not shown)
Result: 74 nM

Problem: Supply IC50 value. Item: COc1c(COC(=O)Nc2ccc(Oc3ccc(F)c(Cl)c3)cc2)ccc2c1C(=O)N(C1CCC(=O)NC1=O)C2 (stereo not shown)
Result: 363 nM

Problem: Supply IC50 value. Item: COc1c(COC(=O)Nc2ccc(C3(c4ccccc4)CC3)cc2)ccc2c1C(=O)N(C1CCC(=O)NC1=O)C2 (stereo not shown)
Result: 1780 nM

Problem: Supply IC50 value. Item: CC(C)Oc1c(COC(=O)Nc2ccc(Oc3ccc(F)cc3)cc2)ccc2c1C(=O)N(C1CCC(=O)NC1=O)C2 (stereo not shown)
Result: 175 nM

* * *

Target: Cyclin E1 (Homo sapiens, UniProt P24864+Q96SW2)
Sequence (P24864 whole entry): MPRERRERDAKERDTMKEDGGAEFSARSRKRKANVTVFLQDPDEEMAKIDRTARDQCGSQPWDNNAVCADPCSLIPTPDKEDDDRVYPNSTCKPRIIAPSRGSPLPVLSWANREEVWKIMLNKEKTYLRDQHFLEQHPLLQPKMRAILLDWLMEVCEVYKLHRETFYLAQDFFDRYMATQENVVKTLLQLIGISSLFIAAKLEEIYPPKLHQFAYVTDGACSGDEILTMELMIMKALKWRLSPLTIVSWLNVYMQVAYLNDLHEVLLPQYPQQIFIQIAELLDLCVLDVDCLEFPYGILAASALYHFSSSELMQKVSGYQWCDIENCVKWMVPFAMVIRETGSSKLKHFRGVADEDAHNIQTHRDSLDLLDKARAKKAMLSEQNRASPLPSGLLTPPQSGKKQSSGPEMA
Sequence (Q96SW2 whole entry): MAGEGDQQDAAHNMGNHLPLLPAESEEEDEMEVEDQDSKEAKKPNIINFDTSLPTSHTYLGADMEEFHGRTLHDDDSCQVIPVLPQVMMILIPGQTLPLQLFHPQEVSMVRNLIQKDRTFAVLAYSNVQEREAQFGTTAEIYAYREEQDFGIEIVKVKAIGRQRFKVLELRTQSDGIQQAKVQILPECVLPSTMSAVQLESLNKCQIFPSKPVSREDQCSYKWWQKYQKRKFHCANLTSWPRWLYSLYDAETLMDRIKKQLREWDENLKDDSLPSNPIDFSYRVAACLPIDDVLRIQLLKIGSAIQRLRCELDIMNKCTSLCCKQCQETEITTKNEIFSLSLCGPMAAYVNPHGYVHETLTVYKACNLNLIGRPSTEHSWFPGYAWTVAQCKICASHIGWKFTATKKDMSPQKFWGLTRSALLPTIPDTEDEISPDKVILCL
Sequence (Q16531 whole entry partner): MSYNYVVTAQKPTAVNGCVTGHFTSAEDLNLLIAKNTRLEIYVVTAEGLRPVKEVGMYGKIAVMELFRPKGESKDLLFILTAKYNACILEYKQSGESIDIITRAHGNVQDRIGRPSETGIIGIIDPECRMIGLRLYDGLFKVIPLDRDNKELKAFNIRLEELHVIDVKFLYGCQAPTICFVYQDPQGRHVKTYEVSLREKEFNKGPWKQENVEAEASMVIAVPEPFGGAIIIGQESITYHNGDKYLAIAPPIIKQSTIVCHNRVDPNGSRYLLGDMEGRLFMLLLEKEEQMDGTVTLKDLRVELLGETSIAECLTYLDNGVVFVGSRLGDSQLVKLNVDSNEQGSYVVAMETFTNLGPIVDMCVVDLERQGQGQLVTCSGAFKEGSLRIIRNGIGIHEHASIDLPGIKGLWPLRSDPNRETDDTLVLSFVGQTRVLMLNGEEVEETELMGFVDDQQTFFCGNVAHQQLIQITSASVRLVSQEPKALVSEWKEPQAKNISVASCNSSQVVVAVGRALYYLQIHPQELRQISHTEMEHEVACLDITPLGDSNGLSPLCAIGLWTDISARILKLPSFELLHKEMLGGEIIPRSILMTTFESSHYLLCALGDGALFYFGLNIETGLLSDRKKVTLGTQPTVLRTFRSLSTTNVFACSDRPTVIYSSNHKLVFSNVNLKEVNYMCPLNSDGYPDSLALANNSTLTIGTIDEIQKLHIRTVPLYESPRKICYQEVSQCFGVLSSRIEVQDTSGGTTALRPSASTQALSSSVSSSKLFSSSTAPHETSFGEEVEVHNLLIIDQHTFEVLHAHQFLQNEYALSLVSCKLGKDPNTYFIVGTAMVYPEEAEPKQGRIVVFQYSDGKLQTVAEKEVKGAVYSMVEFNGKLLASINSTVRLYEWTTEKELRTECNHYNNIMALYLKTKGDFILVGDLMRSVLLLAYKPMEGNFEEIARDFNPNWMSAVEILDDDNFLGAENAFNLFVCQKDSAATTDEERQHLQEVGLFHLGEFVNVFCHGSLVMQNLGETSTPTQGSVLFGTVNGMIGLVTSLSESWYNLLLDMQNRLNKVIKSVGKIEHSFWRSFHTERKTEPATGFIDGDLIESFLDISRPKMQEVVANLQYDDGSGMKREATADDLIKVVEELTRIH
Assay: Cyclin E1 Cellular Degradation Assay (MSD)
Type: cell-based
Set-up: endogenous in cells; host or cells: OVCAR3
Conditions: selectivity for degradation of Cyclin E1 over GSPT1
observable: Ratio of GSPT1 DC50/Cyclin E1 DC50

Problem: Supply Ratio of GSPT1 DC50/Cyclin E1 DC50 value. Item: COc1c(COC(=O)Nc2ccc(Oc3ccc(F)cc3F)cc2)ccc2c1C(=O)N(C1CCC(=O)NC1=O)C2 (centres unmarked) [Example 5]
Result: >47

* * *

Target: Cyclin E1 (Homo sapiens, UniProt P24864+Q96SW2)
Experiment: Cyclin E1 Cellular Degradation Assay (MSD)
Type: cell-based
Parameters: endogenous in cells; host or cells: OVCAR3
Settings: Cyclin E1 cellular degradation, maximum degradation
Procedure: Culturing cells: On Day 0, OVCAR3 cells were plated at 15,000 cells/well in 40 μL of culture medium (RPMI1640, 20% FBS, 0.01 insulin, 1% Anti/Anti) in a 384 well cell culture plate. Cell cultures were incubated for 24 hours at 37° C. and 5% CO2. […] Collecting data: After thawing, 25 μL of lysate was transferred to a coated MSD plate. […] After the final wash, 35 μL of 1× Read Buffer (MSD R92TC-1) was added to each well and the data was captured using the MSD plate reader. […]
observable: Dmax (%)
Provide the reading as a plain figure in %.

Examples with their reported Dmax follow.
Problem: Provide the reported Dmax (system: Cyclin E1 (Homo sapiens, UniProt P24864+Q96SW2)) for COc1c(COC(=O)Nc2ccc(Oc3ccc(F)c(C)c3)cc2F)ccc2c1C(=O)N(C1CCC(=O)NC1=O)C2 (centres unmarked)
Result: 109

Problem: Provide the reported Dmax (system: Cyclin E1 (Homo sapiens, UniProt P24864+Q96SW2)) for COc1c(COC(=O)Nc2ccc(Cc3ccc(F)c(Cl)c3)cc2)ccc2c1C(=O)N(C1CCC(=O)NC1=O)C2 (centres unmarked)
Result: 101

Problem: Provide the reported Dmax (system: Cyclin E1 (Homo sapiens, UniProt P24864+Q96SW2)) for O=C1CCC(N2Cc3ccc(COC(=O)Nc4ccc(Oc5ccc(F)c(F)c5)cc4)c(O[C@H]4CC[C@H](O)CC4)c3C2=O)C(=O)N1 (some centres unmarked)
Result: 108

Problem: Provide the reported Dmax (system: Cyclin E1 (Homo sapiens, UniProt P24864+Q96SW2)) for COc1c(COC(=O)Nc2ccc(Cc3cc(F)c(F)c(F)c3)cc2)ccc2c1C(=O)N(C1CCC(=O)NC1=O)C2 (centres unmarked)
Result: 105

Problem: Provide the reported Dmax (system: Cyclin E1 (Homo sapiens, UniProt P24864+Q96SW2)) for O=C1CCC(N2Cc3ccc(COC(=O)Nc4ccc(Oc5ccc(F)cc5F)cc4F)c(OC4CCOCC4)c3C2=O)C(=O)N1 (centres unmarked)
Result: 110

Problem: Provide the reported Dmax (system: Cyclin E1 (Homo sapiens, UniProt P24864+Q96SW2)) for O=C1CCC(N2Cc3ccc(COC(=O)Nc4ccc(Oc5ccccc5Cl)cc4)c(OC4CCOCC4)c3C2=O)C(=O)N1 (centres unmarked)
Result: 102

Others:
Problem: Provide the reported Dmax (system: Cyclin E1 (Homo sapiens, UniProt P24864+Q96SW2)) for NC(=O)COc1c(COC(=O)Nc2ccc(Oc3ccc(F)c(F)c3)cc2)ccc2c1C(=O)N(C1CCC(=O)NC1=O)C2 (centres unmarked)
Result: 101

Problem: Provide the reported Dmax (system: Cyclin E1 (Homo sapiens, UniProt P24864+Q96SW2)) for O=C1CCC(N2Cc3ccc(COC(=O)Nc4ccc(Oc5cc(F)cc(F)c5)cc4F)c(O[C@@H]4CCCOC4)c3C2=O)C(=O)N1 (some centres unmarked)
Result: 109

Problem: Provide the reported Dmax (system: Cyclin E1 (Homo sapiens, UniProt P24864+Q96SW2)) for O=C1CCC(N2Cc3ccc(COC(=O)Nc4ccc(Oc5ccc(F)cc5)cc4F)c(OC4CCOCC4)c3C2=O)C(=O)N1 (centres unmarked)
Result: 110

* * *

Target: Cyclin E1 (Homo sapiens, UniProt P24864+Q96SW2)
Assay: Cyclin E1 Cellular Degradation Assay (MSD)
Assay type: cell-based
Design: endogenous in cells; host or cells: OVCAR3
Settings: Cyclin E1 cellular degradation, maximum degradation
observable: Dmax (%)
Provide the reading as a plain figure in %.

Examples with their reported Dmax follow.
Problem: Supply Dmax value. Item: COc1c(COC(=O)Nc2ccc(C3(c4ccccc4)CC3)cc2)ccc2c1C(=O)N(C1CCC(=O)NC1=O)C2 (centres unmarked)
Result: 90

Problem: Supply Dmax value. Item: COc1c(COC(=O)Nc2ccc(Oc3ccc(F)c(F)c3)cc2)ccc2c1C(=O)N([C@@H]1CCC(=O)NC1=O)C2 (single isomer, unassigned)
Result: 108

Problem: Supply Dmax value. Item: COc1c(COC(=O)Nc2ccc(Cc3ccc(F)c(F)c3)cc2C)ccc2c1C(=O)N(C1CCC(=O)NC1=O)C2 (centres unmarked)
Result: 100

Problem: Supply Dmax value. Item: COc1c(COC(=O)Nc2ccc(Oc3ccccc3C(F)F)cc2)ccc2c1C(=O)N(C1CCC(=O)NC1=O)C2 (centres unmarked)
Result: 105

Problem: Supply Dmax value. Item: COc1cc(Oc2cc(F)c(F)cc2Cl)ccc1NC(=O)OCc1ccc2c(c1OC)C(=O)N(C1CCC(=O)NC1=O)C2 (centres unmarked)
Result: 106

Problem: Supply Dmax value. Item: "O=C1CC[C@H](N2Cc3ccc(COC(=O)Nc4ccc(Oc5ccc(F)c(F)c5)cc4)c(OCCCc4ccccc4)c3C2=O)C(=O)N1"
Result: 105

Others:
Problem: Supply Dmax value. Item: COCCOc1c(COC(=O)Nc2ccc(Oc3ccc(F)c(F)c3)cc2)ccc2c1C(=O)N(C1CCC(=O)NC1=O)C2 (centres unmarked)
Result: 110

Problem: Supply Dmax value. Item: COc1cc(F)c(F)cc1Oc1ccc(NC(=O)OCc2ccc3c(c2OC)C(=O)N(C2CCC(=O)NC2=O)C3)c(C)c1 (centres unmarked)
Result: 85

Problem: Supply Dmax value. Item: CC(C)(O)COc1c(COC(=O)Nc2ccc(Oc3ccccc3)cc2)ccc2c1C(=O)N(C1CCC(=O)NC1=O)C2 (centres unmarked)
Result: 98

* * *

Reported Dmax is given for each of the following molecules.
Target: GSPT1 (Homo sapiens, UniProt P15170+Q96SW2)
Sequence (P15170 whole entry): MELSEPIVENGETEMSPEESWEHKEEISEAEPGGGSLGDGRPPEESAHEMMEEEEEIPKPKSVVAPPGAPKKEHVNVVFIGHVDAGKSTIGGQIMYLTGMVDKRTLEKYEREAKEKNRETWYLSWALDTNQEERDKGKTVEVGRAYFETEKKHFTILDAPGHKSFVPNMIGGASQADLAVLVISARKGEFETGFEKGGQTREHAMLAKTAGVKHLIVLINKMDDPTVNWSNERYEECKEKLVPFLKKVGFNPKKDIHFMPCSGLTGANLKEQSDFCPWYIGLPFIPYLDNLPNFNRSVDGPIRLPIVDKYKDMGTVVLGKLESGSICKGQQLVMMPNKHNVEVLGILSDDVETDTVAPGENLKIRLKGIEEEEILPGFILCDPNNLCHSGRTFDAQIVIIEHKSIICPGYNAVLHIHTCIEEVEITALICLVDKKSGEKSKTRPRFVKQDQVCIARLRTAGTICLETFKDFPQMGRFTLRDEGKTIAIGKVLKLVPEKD
Sequence (Q96SW2 whole entry): as the sequence (Q96SW2 whole entry) above
Sequence (Q16531 whole entry partner): as the sequence (Q16531 whole entry partner) above
Assay: GSPT1 Cellular Degradation Assay (DF15-GSPT1-ePL)
Assay type: cell-based
Set-up: expressed in transfected cells
Conditions: DF15-GSPT1-ePL cells, 20 hours
Provide the reading as a plain figure in %.

Problem: Provide the reported Dmax (system: GSPT1 (Homo sapiens, UniProt P15170+Q96SW2)) for O=C1CCC(N2Cc3ccc(COC(=O)Nc4ccc(Oc5ccccc5Cl)cc4)c(OC4CCC4)c3C2=O)C(=O)N1 (centres unmarked) [Example 127]
Result: 8

Problem: Provide the reported Dmax (system: GSPT1 (Homo sapiens, UniProt P15170+Q96SW2)) for COc1c(COC(=O)Nc2ccc(C(C)(C)c3ccccc3)cc2)ccc2c1C(=O)N(C1CCC(=O)NC1=O)C2 (centres unmarked) [Example 41]
Result: 13

Problem: Provide the reported Dmax (system: GSPT1 (Homo sapiens, UniProt P15170+Q96SW2)) for COc1c(COC(=O)Nc2ccc(Oc3ccc4sccc4c3)cc2)ccc2c1C(=O)N(C1CCC(=O)NC1=O)C2 (centres unmarked) [Example 114]
Result: 29

Problem: Provide the reported Dmax (system: GSPT1 (Homo sapiens, UniProt P15170+Q96SW2)) for CC(C)(O)COc1c(COC(=O)Nc2ccc(Oc3ccc(F)c(F)c3)cc2)ccc2c1C(=O)N(C1CCC(=O)NC1=O)C2 (centres unmarked) [Example 159]
Result: 21

Problem: Provide the reported Dmax (system: GSPT1 (Homo sapiens, UniProt P15170+Q96SW2)) for COc1c(COC(=O)Nc2ccc(Oc3cc(F)c(F)cc3C)cc2F)ccc2c1C(=O)N(C1CCC(=O)NC1=O)C2 (centres unmarked) [Example 94]
Result: 25

Problem: Provide the reported Dmax (system: GSPT1 (Homo sapiens, UniProt P15170+Q96SW2)) for CC(C)(O)COc1c(COC(=O)Nc2ccc(Oc3ccc(F)c(F)c3)cc2F)ccc2c1C(=O)N(C1CCC(=O)NC1=O)C2 (centres unmarked) [Example 161]
Result: 10

Problem: Provide the reported Dmax (system: GSPT1 (Homo sapiens, UniProt P15170+Q96SW2)) for COc1c(COC(=O)Nc2ccc(Oc3ccc4ccsc4c3)cc2)ccc2c1C(=O)N(C1CCC(=O)NC1=O)C2 (centres unmarked) [Example 115]
Result: 63

Problem: Provide the reported Dmax (system: GSPT1 (Homo sapiens, UniProt P15170+Q96SW2)) for COc1c(COC(=O)Nc2ccc(Cc3cccc(F)c3)cc2F)ccc2c1C(=O)N(C1CCC(=O)NC1=O)C2 (centres unmarked) [Example 20]
Result: 11

Problem: Provide the reported Dmax (system: GSPT1 (Homo sapiens, UniProt P15170+Q96SW2)) for O=C1CCC(N2Cc3ccc(COC(=O)Nc4ccc(Oc5ccc(F)cc5F)cc4)c(Oc4ccccc4)c3C2=O)C(=O)N1 (centres unmarked) [Example 67]
Result: 10

Problem: Provide the reported Dmax (system: GSPT1 (Homo sapiens, UniProt P15170+Q96SW2)) for COc1c(COC(=O)Nc2ccc(Oc3ccc(F)c(C)c3)cc2C)ccc2c1C(=O)N(C1CCC(=O)NC1=O)C2 (centres unmarked) [Example 82]
Result: 25

Problem: Provide the reported Dmax (system: GSPT1 (Homo sapiens, UniProt P15170+Q96SW2)) for COc1cc(Oc2ccc(F)cc2OC)ccc1NC(=O)OCc1ccc2c(c1OC)C(=O)N(C1CCC(=O)NC1=O)C2 (centres unmarked) [Example 50]
Result: 25

Problem: Provide the reported Dmax (system: GSPT1 (Homo sapiens, UniProt P15170+Q96SW2)) for COc1c(COC(=O)Nc2ccc(Oc3ccc(F)cc3)cc2C)ccc2c1C(=O)N(C1CCC(=O)NC1=O)C2 (centres unmarked) [Example 51]
Result: 16

Problem: Provide the reported Dmax (system: GSPT1 (Homo sapiens, UniProt P15170+Q96SW2)) for COc1c(COC(=O)Nc2ccc(Cc3ccc(F)c(Cl)c3)cc2)ccc2c1C(=O)N(C1CCC(=O)NC1=O)C2 (centres unmarked) [Example 21]
Result: 14

Problem: Provide the reported Dmax (system: GSPT1 (Homo sapiens, UniProt P15170+Q96SW2)) for COc1c(COC(=O)Nc2ccc(Oc3cccc4ccccc34)cc2)ccc2c1C(=O)N(C1CCC(=O)NC1=O)C2 (centres unmarked) [Example 113]
Result: 37
